- Tested on: GM1 production in Jurkat cells
- assay text: cells
- Assay type: cell-based
- condition description: Homo sapiens, Jurkat, 72 h
outcome measure: pIC50
Scale note: pIC50 = -log10(concentration in M).

Provide pIC50, recorded with GM1 production in Jurkat cells, of COc1cc2c(cc1-c1cccc(OC(C)C)c1)CC(C)(C)C2NC(=O)O[C@@H]1CN2CCC1CC2 (stereo partly shown)
7.21

Identify measured pIC50 obtained with GM1 production in Jurkat cells for COc1cc2c(cc1-c1ccc(OC(C)C)cc1)CC(C)(C)C2NC(=O)O[C@@H]1CN2CCC1CC2 (stereo partly shown) .
8.07

Fill in pIC50 for CC1(C)Cc2cc(-c3ccc(F)cc3Cl)ccc2C1NC(=O)O[C@@H]1CN2CCC1CC2 (stereo partly shown) tested with GM1 production in Jurkat cells.
7.67

Recall the reported pIC50 of CC1(C)Cc2cc(-c3cccc(C(F)F)c3)ccc2C1NC(=O)O[C@@H]1CN2CCC1CC2 (stereo partly shown) on GM1 production in Jurkat cells and write it down.
8.08

* * *

Please provide measured pIC50 for the entries that follow.
- Tested on: GM1 production in Jurkat cells
- assay text: cells
- Assay type: cell-based
- condition description: Homo sapiens, Jurkat, 72 h
The meaning of pIC50 here: minus log10 of the concentration in molar units.

Please report the measured pIC50 for CC1(C)Cc2cc(-c3cc(C(F)(F)F)cc(C(F)(F)F)c3)ccc2C1NC(=O)O[C@@H]1CN2CCC1CC2 (stereo partly drawn) tested on GM1 production in Jurkat cells.
7.76

Tell me its pIC50 on GM1 production in Jurkat cells: CC1(C)Cc2ccc(-c3ccc(C(F)(F)F)cc3)cc2C1NC(=O)O[C@@H]1CN2CCC1CC2 (stereo partly drawn)
7.52

Given CC1(C)Cc2cc(-c3ccc(F)c(F)c3F)ccc2C1NC(=O)O[C@@H]1CN2CCC1CC2 (stereo partly drawn) , report its pIC50 on GM1 production in Jurkat cells.
7.30

Report pIC50 on GM1 production in Jurkat cells for this entry: COc1ccc(-c2cc3c(cc2F)C(NC(=O)O[C@@H]2CN4CCC2CC4)C(C)(C)C3)cc1OC (stereo partly drawn)
6.48

Consider the compound CSc1cc(-c2ccc3c(c2)CC(C)(C)C3NC(=O)O[C@@H]2CN3CCC2CC3)cc(C(F)(F)F)c1 (stereo partly drawn) tested on GM1 production in Jurkat cells; state its pIC50.
7.83

Give pIC50 for CCOc1ccc(C)cc1-c1ccc2c(c1)CC(C)(C)C2NC(=O)O[C@@H]1CN2CCC1CC2 (stereo partly drawn) tested on GM1 production in Jurkat cells.
7.93

With GM1 production in Jurkat cells as the test system, provide measured pIC50 for this compound: CCCOc1ccc(-c2ccc3c(c2)CC(C)(C)C3NC(=O)O[C@@H]2CN3CCC2CC3)cc1 (stereo partly drawn)
8.09

Please report pIC50 with GM1 production in Jurkat cells for item Cc1ccc(-c2ccc3c(c2)CC(C)(C)C3NC(=O)O[C@@H]2CN3CCC2CC3)cc1Cl (stereo partly drawn) .
7.99

Tell me pIC50 of CCCCc1ccc(-c2cc3c(cc2OC)C(NC(=O)O[C@@H]2CN4CCC2CC4)C(C)(C)C3)cc1 (stereo partly drawn) when tested on GM1 production in Jurkat cells.
7.94

Report pIC50 under test system GM1 production in Jurkat cells for CC1(C)Cc2cc(-c3cccc(C(F)(F)F)c3Cl)ccc2C1NC(=O)O[C@@H]1CN2CCC1CC2 (stereo partly drawn) .
7.68

Report pIC50 on GM1 production in Jurkat cells for this entry: CC1(C)Cc2cc(-c3ccc(F)cc3F)ccc2C1NC(=O)O[C@@H]1CN2CCC1CC2 (stereo partly drawn)
7.30

Provide GM1 production in Jurkat cells pIC50 reading for COc1ccc(Cl)cc1-c1ccc2c(c1)CC(C)(C)C2NC(=O)O[C@@H]1CN2CCC1CC2 (stereo partly drawn) .
8.12

Quote GM1 production in Jurkat cells pIC50 for entry CCOc1ccc(-c2ccc3c(c2)CC(C)(C)C3NC(=O)O[C@@H]2CN3CCC2CC3)c(C)c1 (stereo partly drawn) .
7.85

Answer briefly: pIC50 recorded on GM1 production in Jurkat cells for CCOc1cccc(-c2cc3c(cc2OC)C(NC(=O)O[C@@H]2CN4CCC2CC4)C(C)(C)C3)c1 (stereo partly drawn)
7.20

Enter recorded pIC50 with GM1 production in Jurkat cells for CCC1(CC)Cc2cc(-c3cccc(N(C)C)c3)ccc2C1NC(=O)O[C@@H]1CN2CCC1CC2 (stereo partly drawn) here.
8.40

* * *

- Test system: GM1 production in Jurkat cells
- assay text: cells
- Assay type: cell-based
- condition description: Homo sapiens, Jurkat, 72 h
outcome measure: IC50 (µM)
The reply should contain only the number, in µM.

Using the record for CCC1(CC)Cc2cc(-c3ccc(OC)cc3OC)ccc2C1NC(=O)O[C@@H]1CN2CCC1CC2 (stereo partly shown) , state its measured IC50.
0.0156

Let me know recorded IC50 for COc1cc2c(cc1-c1cc(C)c(OC)c(C)c1)CC(C)(C)C2NC(=O)O[C@@H]1CN2CCC1CC2 (stereo partly shown) , thanks.
0.0658

Query IC50 for COc1ccc(-c2cc3c(cc2F)C(NC(=O)O[C@@H]2CN4CCC2CC4)C(C)(C)C3)c(F)c1 (stereo partly shown)
0.039

Look up and report measured IC50 for this entry: CCOc1c(C)cc(-c2ccc3c(c2)CC(CC)(CC)C3NC(=O)O[C@@H]2CN3CCC2CC3)cc1C (stereo partly shown)
0.0272

Please look at this compound and report its IC50: CCC1(CC)Cc2cc(-c3cccc(OC)c3)ccc2C1NC(=O)O[C@@H]1CN2CCC1CC2 (stereo partly shown)
0.0074

For the compound CC(C)Cc1cccc(-c2cc3c(cc2F)C(NC(=O)O[C@@H]2CN4CCC2CC4)C(C)(C)C3)c1 (stereo partly shown) , report IC50.
0.0462

Hello, please tell me recorded IC50 for this one: CCCCOc1ccc(-c2ccc3c(c2)CC(C)(C)C3NC(=O)O[C@@H]2CN3CCC2CC3)cn1 (stereo partly shown)
0.0047

Supply IC50 value. Item: COc1cc(-c2ccc3c(c2)CC(C)(C)C3NC(=O)O[C@@H]2CN3CCC2CC3)ccc1Cl (stereo partly shown)
0.0095

Please report IC50 for the following compound: CCC1(CC)Cc2cc(-c3ccoc3)ccc2C1NC(=O)O[C@@H]1CN2CCC1CC2 (stereo partly shown)
0.0302

Report IC50, nothing else, for this compound: CCCCOc1ccc(-c2cc3c(cc2F)C(NC(=O)O[C@@H]2CN4CCC2CC4)C(C)(C)C3)cc1 (stereo partly shown)
0.0021

Let me know recorded IC50 for COc1ncc(-c2ccc3c(c2)CC(C)(C)C3NC(=O)O[C@@H]2CN3CCC2CC3)cc1C(F)(F)F (stereo partly shown) , thanks.
0.0462

Read the entry Cc1cc(-c2cc3c(cc2F)C(NC(=O)O[C@@H]2CN4CCC2CC4)C(C)(C)C3)cc(C)c1OC(C)C (stereo partly shown) and write its reported IC50.
0.0931

Tell me measured IC50 for Cc1cc(-c2ccc3c(c2)CC(C)(C)C3NC(=O)O[C@@H]2CN3CCC2CC3)ccc1F (stereo partly shown) please.
0.0358

Consider the compound CCc1ccc(-c2cc3c(cc2OC)C(NC(=O)O[C@@H]2CN4CCC2CC4)C(C)(C)C3)cc1 (stereo partly shown) . State its measured IC50.
0.0131

Give the reported value of IC50 for this record: CC1(C)Cc2cc(-c3ccc(C(F)(F)F)cc3Cl)ccc2C1NC(=O)O[C@@H]1CN2CCC1CC2 (stereo partly shown)
0.0186

Using known records, supply IC50 for CC1(C)Cc2cc(-c3coc4ccccc34)ccc2C1NC(=O)O[C@@H]1CN2CCC1CC2 (stereo partly shown)
0.0028

Output IC50 of Cc1cc(C)cc(-c2ccc3c(c2)CC(C)(C)C3NC(=O)O[C@@H]2CN3CCC2CC3)c1 (stereo partly shown)
0.0258

Look up IC50 of CC1(C)Cc2cc(-c3ccc(OC(F)(F)F)cc3)ccc2C1NC(=O)O[C@@H]1CN2CCC1CC2 (stereo partly shown) and report it.
0.0037

Provide IC50 value for the following compound: CC1(C)Cc2cc(-c3ccccc3C(F)(F)F)ccc2C1NC(=O)O[C@@H]1CN2CCC1CC2 (stereo partly shown)
0.0037

Read the entry O=C(NC1COc2cc(-c3cccc(C(F)(F)F)c3)ccc21)O[C@@H]1CN2CCC1CC2 (stereo partly shown) and write its reported IC50.
0.0259

Give reported IC50 value for COc1cc(OC)cc(-c2cc3c(cc2F)C(NC(=O)O[C@@H]2CN4CCC2CC4)C(C)(C)C3)c1 (stereo partly shown)
0.0832

Please give the documented IC50 of COc1cc2c(cc1-c1cc(C)c(OC(C)C)c(C)c1)CC(C)(C)C2NC(=O)O[C@@H]1CN2CCC1CC2 (stereo partly shown)
0.0441

Specify measured IC50 for CC1(C)Cc2ccc(-c3cccc(F)c3F)cc2C1NC(=O)O[C@@H]1CN2CCC1CC2 (stereo partly shown) .
0.0747

Specify measured IC50 for O=C(NC1CCc2ccc(-c3ccc(Cl)c(Cl)c3)cc21)O[C@@H]1CN2CCC1CC2 (stereo partly shown) .
0.0266

Please supply the value of reported IC50 for the item COc1c(C)cc(-c2cc3c(cc2F)C(NC(=O)O[C@@H]2CN4CCC2CC4)C(C)(C)C3)cc1C (stereo partly shown)
0.0794

Return the recorded IC50 value; entry: CC1(C)Oc2ccc(-c3cccc(F)c3)cc2C1NC(=O)O[C@@H]1CN2CCC1CC2 (stereo partly shown)
0.12

Indicate the recorded IC50 value for this compound: O=C(NC1CCc2ccc(-c3ccc(Cl)cc3)cc21)O[C@@H]1CN2CCC1CC2 (stereo partly shown)
0.0672

Annotate the compound CC1(C)Oc2cc(-c3cccc(OC(F)(F)F)c3)ccc2C1NC(=O)O[C@@H]1CN2CCC1CC2 (stereo partly shown) with its measured IC50.
0.013

Please look at this compound and report its IC50: O=C(NC1CCc2ccc(-c3cccc(F)c3)cc21)O[C@@H]1CN2CCC1CC2 (stereo partly shown)
0.063

Determine from records and report IC50 for CC1(C)Cc2cc(-c3cccc(C(F)(F)F)c3)ccc2C1NC(=O)O[C@@H]1CN2CCC1CC2 (stereo partly shown)
0.0039

Give IC50 for O=C(NC1CCc2cc(-c3cccc(C(F)(F)F)c3)ccc21)O[C@@H]1CN2CCC1CC2 (stereo partly shown)
0.0368
